- test_method_notes: Metabolic stability test
- Type: in vitro ADME
- stated_conditions: liver microsomes; human hepatic microsomes, 0 to 60 minutes; read-out: metabolic clearance CLint
Attribute: CLint scaled
Write the value in mL/min/kg as a bare number.

### Prompt # query: CLint scaled of entry O=C(c1cccc[n+]1[O-])N1C[C@H]2C[C@@]34CC[C@@H]1[C@@H]2[C@@]31CCN(CC2CC2)[C@@H]4Cc2ccc(O)cc21
### Response 19

---

Attribute: Emax
- target_entity: human opioid κ receptor (Homo sapiens)
- Construct: host or cells: CHO cells
- Sequence (P41145 whole entry): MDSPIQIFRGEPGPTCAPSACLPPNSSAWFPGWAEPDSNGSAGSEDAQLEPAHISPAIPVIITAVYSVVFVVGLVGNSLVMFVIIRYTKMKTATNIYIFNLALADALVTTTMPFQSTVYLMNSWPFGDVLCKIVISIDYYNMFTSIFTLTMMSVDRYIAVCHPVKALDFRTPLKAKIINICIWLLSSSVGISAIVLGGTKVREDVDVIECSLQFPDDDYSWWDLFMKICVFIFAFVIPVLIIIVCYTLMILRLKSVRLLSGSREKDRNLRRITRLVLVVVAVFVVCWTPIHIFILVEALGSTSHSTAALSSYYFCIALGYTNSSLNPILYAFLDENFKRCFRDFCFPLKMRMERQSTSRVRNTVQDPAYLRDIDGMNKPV
- test_method_notes: Opioid receptor function test (Lance Ultra cAMP Kit), κ receptor
- Assay type: cell-based
- stated_conditions: ratio to maximum reaction of control drug U-69593 taken as 100%
- Procedure: Opioid Receptor Function Test The functional activities of the compounds provided by the present invention on the μ, δ, and κ opioid receptors were investigated. The test was performed by using Lance Ultra cAMP Kit (PerkinElmer) according to a method predetermined for the kit. […] Subsequently, the cAMP detection reagent included in the kit was added, and 1 hour afterward, time-resolved fluorescence measurement was performed by using the EnVision plate reader (PerkinElmer). […]
Write the value in % as a bare number.

// solved cases for Emax follow
molecule="O=C(c1cccc[n+]1[O-])N1C[C@H]2C[C@@]34CC[C@@H]1[C@@H]2[C@@]31CCN(CC2CC2)[C@@H]4Cc2ccc(O)cc21 [Example 1]" target_entity="human opioid κ receptor (Homo sapiens)" readout_kind=Emax value_units=% test_result=12
molecule="Cn1cc(C(=O)N2C[C@H]3C[C@@]45CC[C@@H]2[C@@H]3[C@@]42CCN(CC3CC3)[C@@H]5Cc3ccc(O)cc32)ccc1=O [Example 9]" target_entity="human opioid κ receptor (Homo sapiens)" readout_kind=Emax value_units=% test_result=14
molecule="O=C(c1ccc(=O)[nH]n1)N1C[C@H]2C[C@@]34CC[C@@H]1[C@@H]2[C@@]31CCN(CC2CC2)[C@@H]4Cc2ccc(O)cc21 [Example 16]" target_entity="human opioid κ receptor (Homo sapiens)" readout_kind=Emax value_units=% test_result=29
molecule="Cc1ccc(C(=O)N2C[C@H]3C[C@@]45CC[C@@H]2[C@@H]3[C@@]42CCN(CC3CC3)[C@@H]5Cc3ccc(O)cc32)c(=O)[nH]1 [Example 8]" target_entity="human opioid κ receptor (Homo sapiens)" readout_kind=Emax value_units=% test_result=21
molecule="CCn1cc(C(=O)N2C[C@H]3C[C@@]45CC[C@@H]2[C@@H]3[C@@]42CCN(CC3CC3)[C@@H]5Cc3ccc(O)cc32)ccc1=O [Example 28]" target_entity="human opioid κ receptor (Homo sapiens)" readout_kind=Emax value_units=% test_result=18

### Prompt # query: Emax of entry O=C(c1ccc[n+]([O-])c1)N1C[C@H]2C[C@@]34CC[C@@H]1[C@@H]2[C@@]31CCN(CC2CC2)[C@@H]4Cc2ccc(O)cc21 [Example 4]
### Response 27

### Prompt # query: Emax of entry O=C(c1ccc[nH]c1=O)N1C[C@H]2C[C@@]34CC[C@@H]1[C@@H]2[C@@]31CCN(CC2CC2)[C@@H]4Cc2ccc(O)cc21 [Example 3]
### Response 15

### Prompt # query: Emax of entry O=C(c1ccc(=O)[nH]c1)N1C[C@H]2C[C@@]34CC[C@@H]1[C@@H]2[C@@]31CCN(CC2CC2)[C@@H]4Cc2ccc(O)cc21 [Example 5]
### Response 20

---

- target_entity: human opioid μ receptor (Homo sapiens, UniProt P35372)
- Construct: host or cells: CHO cells
- Sequence (P35372 whole entry): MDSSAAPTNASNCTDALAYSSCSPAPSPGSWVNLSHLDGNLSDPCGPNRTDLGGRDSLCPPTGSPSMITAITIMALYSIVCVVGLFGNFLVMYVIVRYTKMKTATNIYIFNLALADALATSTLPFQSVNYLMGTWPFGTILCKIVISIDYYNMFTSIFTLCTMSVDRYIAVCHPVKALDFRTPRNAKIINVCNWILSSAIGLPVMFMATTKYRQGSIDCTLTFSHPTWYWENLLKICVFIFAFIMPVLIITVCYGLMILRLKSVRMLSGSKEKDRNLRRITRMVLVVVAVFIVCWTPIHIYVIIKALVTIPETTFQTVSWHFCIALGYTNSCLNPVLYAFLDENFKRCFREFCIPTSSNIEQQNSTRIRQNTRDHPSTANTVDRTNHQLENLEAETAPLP
- test_method_notes: Opioid receptor function test (Lance Ultra cAMP Kit), μ receptor
- Format: cell-based
- stated_conditions: ratio to maximum reaction of control drug DAMGO taken as 100%
readout_kind: Emax (%)
Write the value in % as a bare number.

structure=O=C(c1cc(=O)cc[nH]1)N1C[C@H]2C[C@@]34CC[C@@H]1[C@@H]2[C@@]31CCN(CC2CC2)[C@@H]4Cc2ccc(O)cc21 target_entity="human opioid μ receptor (Homo sapiens, UniProt P35372)" readout_kind=Emax test_result=8.1
structure=O=C(c1ccc(=O)[nH]c1)N1C[C@H]2C[C@@]34CC[C@@H]1[C@@H]2[C@@]31CCN(CC2CC2)[C@@H]4Cc2ccc(O)cc21 target_entity="human opioid μ receptor (Homo sapiens, UniProt P35372)" readout_kind=Emax test_result=9.7

// moving on: another record for Emax
### Prompt # query: Emax of entry CCn1cc(C(=O)N2C[C@H]3C[C@@]45CC[C@@H]2[C@@H]3[C@@]42CCN(CC3CC3)[C@@H]5Cc3ccc(O)cc32)ccc1=O
### Response 16

---

- target_entity: human opioid κ receptor (Homo sapiens)
- test_method_notes: Opioid receptor function test (Lance Ultra cAMP Kit), κ receptor
- stated_conditions: CHO cells expressing human κ receptor, cAMP, in the presence of forskolin
readout_kind: EC50

structure=O=C(c1ccc(=O)[nH]c1)N1C[C@H]2C[C@@]34CC[C@@H]1[C@@H]2[C@@]31CCN(CC2CC2)[C@@H]4Cc2ccc(O)cc21 test_result="< 1 nM"
structure=Cn1cc(C(=O)N2C[C@H]3C[C@@]45CC[C@@H]2[C@@H]3[C@@]42CCN(CC3CC3)[C@@H]5Cc3ccc(O)cc32)ccc1=O test_result="< 1 nM"
structure=Cc1ccc(C(=O)N2C[C@H]3C[C@@]45CC[C@@H]2[C@@H]3[C@@]42CCN(CC3CC3)[C@@H]5Cc3ccc(O)cc32)c(=O)[nH]1 test_result="< 1 nM"
structure=O=C(c1ccc[n+]([O-])c1)N1C[C@H]2C[C@@]34CC[C@@H]1[C@@H]2[C@@]31CCN(CC2CC2)[C@@H]4Cc2ccc(O)cc21 test_result="> 10 nM"

### Prompt # query: EC50 of entry O=C(c1ccc(=O)[nH]n1)N1C[C@H]2C[C@@]34CC[C@@H]1[C@@H]2[C@@]31CCN(CC2CC2)[C@@H]4Cc2ccc(O)cc21
### Response < 1 nM

### Prompt # query: EC50 of entry O=C(c1cccc[n+]1[O-])N1C[C@H]2C[C@@]34CC[C@@H]1[C@@H]2[C@@]31CCN(CC2CC2)[C@@H]4Cc2ccc(O)cc21
### Response > 1 nM

### Prompt # query: EC50 of entry O=C(c1ccc[nH]c1=O)N1C[C@H]2C[C@@]34CC[C@@H]1[C@@H]2[C@@]31CCN(CC2CC2)[C@@H]4Cc2ccc(O)cc21
### Response < 1 nM

### Prompt # query: EC50 of entry CCn1cc(C(=O)N2C[C@H]3C[C@@]45CC[C@@H]2[C@@H]3[C@@]42CCN(CC3CC3)[C@@H]5Cc3ccc(O)cc32)ccc1=O
### Response < 1 nM

---

- target_entity: human opioid δ receptor (Homo sapiens, UniProt P41143)
- Construct: host or cells: CHO cells
- Sequence (P41143 whole entry): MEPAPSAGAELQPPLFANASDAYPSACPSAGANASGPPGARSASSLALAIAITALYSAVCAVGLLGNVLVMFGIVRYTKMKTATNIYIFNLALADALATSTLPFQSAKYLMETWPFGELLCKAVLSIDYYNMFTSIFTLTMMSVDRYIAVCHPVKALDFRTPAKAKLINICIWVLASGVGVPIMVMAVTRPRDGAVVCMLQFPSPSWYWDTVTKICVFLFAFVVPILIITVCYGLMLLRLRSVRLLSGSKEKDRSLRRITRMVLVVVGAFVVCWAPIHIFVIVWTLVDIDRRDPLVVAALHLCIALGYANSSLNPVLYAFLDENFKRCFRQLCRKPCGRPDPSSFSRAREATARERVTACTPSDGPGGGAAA
- test_method_notes: Opioid receptor function test (Lance Ultra cAMP Kit), δ receptor
- Format: cell-based
- stated_conditions: ratio to maximum reaction of control drug SNC80 taken as 100%
readout_kind: Emax
Numeric answer plus unit only.

// solved cases for Emax follow
compound="O=C(c1ccc(=O)[nH]c1)N1C[C@H]2C[C@@]34CC[C@@H]1[C@@H]2[C@@]31CCN(CC2CC2)[C@@H]4Cc2ccc(O)cc21 [Example 5]" target_entity="human opioid δ receptor (Homo sapiens, UniProt P41143)" readout_kind=Emax test_result=81%
compound="O=C(c1cc(=O)cc[nH]1)N1C[C@H]2C[C@@]34CC[C@@H]1[C@@H]2[C@@]31CCN(CC2CC2)[C@@H]4Cc2ccc(O)cc21 [Example 14]" target_entity="human opioid δ receptor (Homo sapiens, UniProt P41143)" readout_kind=Emax test_result=95%

### Prompt # query: Emax of entry O=C(c1cccc[n+]1[O-])N1C[C@H]2C[C@@]34CC[C@@H]1[C@@H]2[C@@]31CCN(CC2CC2)[C@@H]4Cc2ccc(O)cc21 [Example 1]
### Response 88%

### Prompt # query: Emax of entry O=C(c1cc(=O)cco1)N1C[C@H]2C[C@@]34CC[C@@H]1[C@@H]2[C@@]31CCN(CC2CC2)[C@@H]4Cc2ccc(O)cc21 [Example 19]
### Response 91%

### Prompt # query: Emax of entry O=C(c1ccc[nH]c1=O)N1C[C@H]2C[C@@]34CC[C@@H]1[C@@H]2[C@@]31CCN(CC2CC2)[C@@H]4Cc2ccc(O)cc21 [Example 3]
### Response 98%

### Prompt # query: Emax of entry Cn1cccc(C(=O)N2C[C@H]3C[C@@]45CC[C@@H]2[C@@H]3[C@@]42CCN(CC3CC3)[C@@H]5Cc3ccc(O)cc32)c1=O [Example 6]
### Response 97%

---

- target_entity: human opioid μ receptor (Homo sapiens)
- Construct: host or cells: CHO cells
- test_method_notes: Opioid receptor function test (Lance Ultra cAMP Kit), μ receptor
- Type: cell-based
- stated_conditions: ratio to maximum reaction of control drug DAMGO taken as 100%
readout_kind: Emax (%)
Write the value in % as a bare number.

// solved cases for Emax follow
structure=O=C(c1cc[nH]c(=O)c1)N1C[C@H]2C[C@@]34CC[C@@H]1[C@@H]2[C@@]31CCN(CC2CC2)[C@@H]4Cc2ccc(O)cc21 test_result=11
structure=Cc1ccc(C(=O)N2C[C@H]3C[C@@]45CC[C@@H]2[C@@H]3[C@@]42CCN(CC3CC3)[C@@H]5Cc3ccc(O)cc32)c(=O)[nH]1 test_result=8.6
structure=Cn1cccc(C(=O)N2C[C@H]3C[C@@]45CC[C@@H]2[C@@H]3[C@@]42CCN(CC3CC3)[C@@H]5Cc3ccc(O)cc32)c1=O test_result=7.7
structure=Cn1cc(C(=O)N2C[C@H]3C[C@@]45CC[C@@H]2[C@@H]3[C@@]42CCN(CC3CC3)[C@@H]5Cc3ccc(O)cc32)ccc1=O test_result=15
structure=O=C(c1cc(=O)cco1)N1C[C@H]2C[C@@]34CC[C@@H]1[C@@H]2[C@@]31CCN(CC2CC2)[C@@H]4Cc2ccc(O)cc21 test_result=19

### Prompt # query: Emax of entry O=C(c1ccc[nH]c1=O)N1C[C@H]2C[C@@]34CC[C@@H]1[C@@H]2[C@@]31CCN(CC2CC2)[C@@H]4Cc2ccc(O)cc21
### Response 20

### Prompt # query: Emax of entry O=C(c1cccc(=O)[nH]1)N1C[C@H]2C[C@@]34CC[C@@H]1[C@@H]2[C@@]31CCN(CC2CC2)[C@@H]4Cc2ccc(O)cc21
### Response 10

### Prompt # query: Emax of entry O=C(c1ccc(=O)[nH]n1)N1C[C@H]2C[C@@]34CC[C@@H]1[C@@H]2[C@@]31CCN(CC2CC2)[C@@H]4Cc2ccc(O)cc21
### Response 19
